assay: HILIC, Merck SeQuant ZIC-HILIC, 100 × 2.1 mm, 3.5 µm, 25 °C, 0.3 mL/min, estimated dead time 0.73 min; A: water + 0.1% formic acid, pH 3; B: acetonitrile + 0.1% formic acid, pH 3; gradient (min/%B) 0/95 1.5/95 13.5/40 15.5/40 29.7/25 33.5/25 34.5/95 41.5/95; conditions: stereoisomer not certain
Recorded Metric: LC retention time (min)

Query :: Determine its reported LC retention time: O=c1[nH]c(=O)c2ncn(C3OC(CO)C(O)C3O)c2[nH]1 (configuration not stated)
Result :: 5.36

[a] C[N+](C)(C)[C@@H](Cc1ccccc1)C(=O)[O-]
[b] Nc1ncnc2c1ncn2C1OC(CSCCC([NH3+])C(=O)[O-])C(O)C1O (configuration not stated)
Query :: When a and b are compared, which has the higher number for LC retention time? Please respond with the label that marks your chosen entry.
Result :: b

[a] Nc1ccccc1O
[b] O=C(O)Cc1c[nH]c2ccc(O)cc12 [5-hydroxyindoleacetate]
Query :: Thinking about recorded LC retention time values, which is higher, a or b ? Response format: the label of the selected entry.
Result :: a

[a] CNCC(=O)O
[b] Cn1cnc2[nH]c(=O)[nH]c(=O)c21
Query :: a or b : whose LC retention time is greater? Refer to your chosen entry by its label in the reply.
Result :: a
(a: 7.67 min, b: 2.72 min)

[I] C[N+]1(C)CCCCC1C(=O)[O-] (configuration not stated) [Homostachydrine]
[II] Cc1ncc(CO)c(C(=O)O)c1O
Query :: Which of the two items, I and II , has the greater recorded LC retention time? Pick one; state its label.
Result :: I
(I: 6.93 min, II: 4.14 min)

[a] C[N+](C)(C)CCCCC(=O)[O-]
[b] Cn1cncc1CC(N)C(=O)O (configuration not stated)
Query :: Name the one with the greater LC retention time value, either a or b as given. Pick one; state its label.
Result :: b
(b: 12 min, a: 6.01 min)

[I] CC(=O)NC(CCCC[NH3+])C(=O)[O-] (configuration not stated)
[II] OCC1OC(O)C(O)C1O (configuration not stated)
Query :: Between the two listed entries I and II , which has its LC retention time at the higher number? Lab log: write the label of the selected item as the result.
Result :: I
(I: 8.42 min, II: 5 min)

[a] NC(CS)C(=O)O (configuration not stated)
[b] O=S(=O)(O)CCNC1CCCCC1
Query :: Sorting ascending by LC retention time, which comes first: a or b ? Could you answer with the label of the item you picked?
Result :: b

###

experiment: HILIC, Merck SeQuant ZIC-HILIC, 100 × 2.1 mm, 3.5 µm, 25 °C, 0.3 mL/min, estimated dead time 0.73 min; A: water + 0.1% formic acid, pH 3; B: acetonitrile + 0.1% formic acid, pH 3; gradient (min/%B) 0/95 1.5/95 13.5/40 15.5/40 29.7/25 33.5/25 34.5/95 41.5/95; conditions: stereoisomer not certain
Recorded Metric: LC retention time (min)

Query :: Read off the recorded LC retention time for OCC1OC(OC2(CO)OC(CO)C(O)C2O)C(O)C(O)C1O (stereo not drawn) [Sucrose]
Result :: 7.32

Query :: Please report LC retention time for the following compound: [NH3+]CCCCCC(=O)[O-] [Aminocaproate]
Result :: 7.15

Query :: Provide LC retention time value for the following compound: NCCc1c[nH]c2ccc(O)cc12 [Serotonin]
Result :: 7.73

###

assay: HILIC, Merck SeQuant ZIC-HILIC, 100 × 2.1 mm, 3.5 µm, 25 °C, 0.3 mL/min, estimated dead time 0.73 min; A: water + 0.1% formic acid, pH 3; B: acetonitrile + 0.1% formic acid, pH 3; gradient (min/%B) 0/95 1.5/95 13.5/40 15.5/40 29.7/25 33.5/25 34.5/95 41.5/95; conditions: stereoisomer not certain
Recorded Metric: LC retention time (min)

Query :: Supply recorded LC retention time for OCCOCCOCCOCCOCCOCCO here.
Result :: 1.69

[1] CC(C)C(C(=O)O)[N+](C)(C)C (stereo not drawn)
[2] N[C@H]1C(O)O[C@H](COP(=O)(O)O)[C@@H](O)[C@@H]1O (stereo partly drawn) [D-glucosamine-6-phosphate]
[3] COC(=O)c1ccccn1 [Methylpicolinate]
Query :: With regard to LC retention time, arrange the entries in ascending order, please. Please express your ranking as an ordered list of the labels.
Result :: 3, 1, 2
(3: 1.06 min, 1: 5.99 min, 2: 10 min)

[a] Cc1ncc(CO)c(CO)c1O
[b] O=C(O)c1cc(O)c(O)c(O)c1
Query :: Hi team, can someone confirm which has the larger LC retention time: a or b ? Thanks. Indicate your choice by writing its label.
Result :: a

[a] CC(=O)N[C@H]1C(O)O[C@H](CO)[C@@H](O)[C@@H]1O (stereo partly drawn)
[b] O=C(C=CC=Cc1ccc2c(c1)OCO2)N1CCCCC1
Query :: Lab note: check whether a or b has the lower measured LC retention time. When you have decided, please share the label of that item.
Result :: b

###

test: HILIC, Merck SeQuant ZIC-HILIC, 100 × 2.1 mm, 3.5 µm, 25 °C, 0.3 mL/min, estimated dead time 0.73 min; A: water + 0.1% formic acid, pH 3; B: acetonitrile + 0.1% formic acid, pH 3; gradient (min/%B) 0/95 1.5/95 13.5/40 15.5/40 29.7/25 33.5/25 34.5/95 41.5/95; conditions: stereoisomer not certain
Recorded Metric: LC retention time (min)

// worked examples, LC retention time included
Query :: State, in one line, measured LC retention time of CSCCC(NC=O)C(=O)O (stereo unspecified)
Result :: 1.85

Query :: Determine its reported LC retention time: Nc1nc2c([nH]c(=O)n2C2OC(CO)C(O)C2O)c(=O)[nH]1 (stereo unspecified) [8-hydroxyguanosine]
Result :: 6.1

Query :: Give the value of LC retention time reported for the following: O=C(O)Cn1ccnc1
Result :: 7.7

[A] Nc1nc2c(ncn2C2OC(COP(=O)(O)O)C(O)C2O)c(=O)[nH]1 (stereo unspecified) [Guanosine mono-phosphate]
[B] COc1cc(/C=C/C(=O)O)ccc1O [trans-Ferulic acid]
[C] O=C(O)c1ccccc1C(=O)O
[D] NC(N)=NCCC[C@H](N)C(=O)O
Query :: Sort (4 compounds) by LC retention time: min first. Put the labels in the order asked and list them.
Result :: B, C, A, D

###

assay: HILIC, Merck SeQuant ZIC-HILIC, 100 × 2.1 mm, 3.5 µm, 25 °C, 0.3 mL/min, estimated dead time 0.73 min; A: water + 0.1% formic acid, pH 3; B: acetonitrile + 0.1% formic acid, pH 3; gradient (min/%B) 0/95 1.5/95 13.5/40 15.5/40 29.7/25 33.5/25 34.5/95 41.5/95; conditions: stereoisomer not certain
Recorded Metric: LC retention time (min)

Query :: Entry CCC(NC(=O)CCC(N)C(=O)O)C(=O)NCC(=O)O (centres undefined) [Ophthalmic acid] needs its LC retention time filled in; supply it.
Result :: 7.85

Query :: Identify LC retention time associated with the compound O=c1ccn(C2OC(CO)C(O)C2O)c(=O)[nH]1 (centres undefined) [Uridine]
Result :: 4.98

[A] O=S(=O)(O)CCN1CCOCC1 [MES]
[B] Nc1ccc(C(=O)O)cc1 [p-Aminobenzoic acid]
Query :: Between A and B , whose recorded LC retention time is greater? // respond with label for picked entry
Result :: A

###

assay: HILIC, Merck SeQuant ZIC-HILIC, 100 × 2.1 mm, 3.5 µm, 25 °C, 0.3 mL/min, estimated dead time 0.73 min; A: water + 0.1% formic acid, pH 3; B: acetonitrile + 0.1% formic acid, pH 3; gradient (min/%B) 0/95 1.5/95 13.5/40 15.5/40 29.7/25 33.5/25 34.5/95 41.5/95; settings: stereoisomer not certain
Recorded Metric: LC retention time (min)

Query :: Determine its reported LC retention time: O=S(=O)(O)CCN1CCN(CCS(=O)(=O)O)CC1
Result :: 9.12

Query :: Identify LC retention time associated with the compound CC(=O)NC(Cc1cnc[nH]1)C(=O)O (stereo not drawn)
Result :: 8.16

Query :: Name the recorded LC retention time of the item NCCc1cc(O)c(O)cc1O [Hydroxydopamine] in your answer.
Result :: 9.19

###

assay: HILIC, Merck SeQuant ZIC-HILIC, 100 × 2.1 mm, 3.5 µm, 25 °C, 0.3 mL/min, estimated dead time 0.73 min; A: water + 0.1% formic acid, pH 3; B: acetonitrile + 0.1% formic acid, pH 3; gradient (min/%B) 0/95 1.5/95 13.5/40 15.5/40 29.7/25 33.5/25 34.5/95 41.5/95; conditions: stereoisomer not certain
Recorded Metric: LC retention time (min)

[A] NC(CCC(=O)O)C(=O)NC(Cc1ccc(O)cc1)C(=O)O (configuration not stated) [a-glutamyl-tyrosine]
[B] Cc1cn(C2CC(O)C(CO)O2)c(=O)[nH]c1=O (configuration not stated) [Thymidine]
Query :: Kindly identify which of A and B has the larger recorded LC retention time value. Indicate your choice by writing its label.
Result :: A

[P] C[n+]1cccc(C(N)=O)c1 [1-Methylnicotinamide]
[Q] O=C(O)c1ccncc1 [Isonicotinic acid]
[R] O=C(O)CNC(=O)c1ccccc1 [Hippuric acid]
[S] CN1C(=O)CCC1c1cccnc1 (configuration not stated) [Cotinine]
[T] CC(=O)OCC[N+](C)(C)C [Acetylcholine]
Query :: Please list these compounds in decreasing order of LC retention time. Lab note: record answer as labels in requested order.
Result :: P, S, T, Q, R
(P: 8.28 min, S: 5.16 min, T: 3.46 min, Q: 2.25 min, R: 1.36 min)

[1] CC(NC(=O)C(Cc1ccccc1)NC(=O)C(N)CC(=O)O)C(=O)O (stereo not drawn) [Asp-Phe-Ala]
[2] O=C1CCCCN1 [2-Piperidone]
Query :: // compare: 1 vs 2 , metric LC retention time, want the smaller Your answer should be the label attached to the chosen record.
Result :: 2
